Source: patent US10947242B2

target: Human recombinant PDE2A (hPDE2A) (Homo sapiens); construct: His tag (inferred from metal chelate purification); made in house; host or cells: Sf9 insect cells (baculovirus); assay: In vitro assay PDE2A (SPA, 3H-cGMP hydrolysis); assay type: biochemical; details: human recombinant PDE2A, 10 μM cGMP substrate; read-out: hPDE2A pIC50 (converted)
Sequence (O00408 whole entry): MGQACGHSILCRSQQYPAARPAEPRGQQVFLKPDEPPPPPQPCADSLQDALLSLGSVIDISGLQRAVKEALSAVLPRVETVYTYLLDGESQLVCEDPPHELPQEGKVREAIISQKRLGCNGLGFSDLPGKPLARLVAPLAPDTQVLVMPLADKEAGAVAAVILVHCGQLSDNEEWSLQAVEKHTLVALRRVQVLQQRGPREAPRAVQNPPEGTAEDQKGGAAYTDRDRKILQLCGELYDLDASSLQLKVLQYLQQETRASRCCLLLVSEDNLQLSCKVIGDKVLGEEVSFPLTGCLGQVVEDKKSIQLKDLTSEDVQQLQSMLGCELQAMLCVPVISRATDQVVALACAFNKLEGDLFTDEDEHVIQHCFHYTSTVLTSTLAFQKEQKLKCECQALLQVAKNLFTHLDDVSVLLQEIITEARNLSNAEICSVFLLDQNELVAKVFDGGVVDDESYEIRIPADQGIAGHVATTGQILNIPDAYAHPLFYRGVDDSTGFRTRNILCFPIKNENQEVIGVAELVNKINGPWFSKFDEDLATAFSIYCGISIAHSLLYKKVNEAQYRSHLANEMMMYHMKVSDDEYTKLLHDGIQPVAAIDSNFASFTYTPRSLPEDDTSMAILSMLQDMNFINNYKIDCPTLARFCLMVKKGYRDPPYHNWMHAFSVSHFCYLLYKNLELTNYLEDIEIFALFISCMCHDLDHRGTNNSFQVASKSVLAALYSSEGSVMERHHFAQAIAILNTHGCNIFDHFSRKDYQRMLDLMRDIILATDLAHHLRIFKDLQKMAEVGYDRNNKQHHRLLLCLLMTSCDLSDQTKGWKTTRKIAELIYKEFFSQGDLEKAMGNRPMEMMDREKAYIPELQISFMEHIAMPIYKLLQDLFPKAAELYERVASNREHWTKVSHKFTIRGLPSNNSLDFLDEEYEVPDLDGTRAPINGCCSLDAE
Observable: IC50 (nM)

As a guide, the following entries are already answered.
>  <Molecule>
Cc1cc(C(=O)N2CC[C@@H](C)[C@H](c3cc(C(F)F)nc4ncnn34)C2)nc(C)n1

>  <Readout number>
29.5

$$$$
>  <Molecule>
Cc1cc([C@@H]2CN(C(=O)c3cc4cccnc4nc3C(F)(F)F)CC[C@H]2C)n2ncnc2n1

>  <Readout number>
10.5

$$$$

(1) Cc1cnc(C(=O)N2CC[C@@H](C)[C@H](c3cc(C(F)F)nc4ncnn34)C2)cn1
(2) Cc1csc(C(=O)N2CC[C@@H](C)[C@H](c3cc(C(F)F)nc4ncnn34)C2)c1Cl
Thinking about recorded IC50 values, which is higher, 1 or 2 ? Answer by quoting the chosen item's label.
1
